Target: human sphingosine-1-phosphate receptor 1 (S1P1) (Homo sapiens)
Sequence (P21453 whole entry): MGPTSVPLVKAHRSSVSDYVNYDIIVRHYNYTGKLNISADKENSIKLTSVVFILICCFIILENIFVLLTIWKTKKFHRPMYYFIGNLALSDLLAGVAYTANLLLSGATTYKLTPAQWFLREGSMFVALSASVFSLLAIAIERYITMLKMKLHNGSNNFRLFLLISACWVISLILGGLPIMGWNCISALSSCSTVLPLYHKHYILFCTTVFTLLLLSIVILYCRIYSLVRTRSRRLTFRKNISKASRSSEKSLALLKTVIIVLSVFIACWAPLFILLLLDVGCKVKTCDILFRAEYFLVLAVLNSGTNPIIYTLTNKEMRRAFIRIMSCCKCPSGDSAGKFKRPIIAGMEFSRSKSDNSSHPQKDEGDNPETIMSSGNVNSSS
Test: Inhibition of cAMP production (HTRF cAMP HiRange), S1P1 CHO-K1 cells
Assay type: cell-based
Settings: CHO-K1; efficacy normalized to maximum efficacy of fingolimod; read-out: hS1P1 CAMP SPAN
Description: Stable clonal Chinese hamster ovary K1 (CHO-K1) cells co-expressing EA-β-arrestin2 and the human sphingosine-1-phosphate receptor 1 (NM_001400, S1P1) with a C-terminal Prolink™ tag were purchased from DiscoverX corporation (Cat #: 93-0207C2). […] Agonist-promoted G-protein responses were determined by measuring changes in intracellular cAMP using the HTRF® cAMP HiRange kit (CisBio, Cat #: 62AM6PEJ) based on time-resolved fluorescence resonance energy transfer (TR-FRET) technology. […]
# Emax per entry

Study these solved cases before continuing.
# `COc1ccccc1-c1cnc(-c2ccc3c(c2)nnn3C(C)C)nc1` with human sphingosine-1-phosphate receptor 1 (S1P1) (Homo sapiens): Emax is > 75%

Summary line: `CC(C)Nc1ccc(-c2ncc(-c3ccc4[nH]c(=O)[nH]c4c3)cn2)cc1C#N` , human sphingosine-1-phosphate receptor 1 (S1P1) (Homo sapiens), reported Emax = > 75%

Summary line: `COc1ccc(-c2nc(-c3ccc4c(c3)nnn4C(C)(C)CO)no2)c(C)c1` , human sphingosine-1-phosphate receptor 1 (S1P1) (Homo sapiens), reported Emax = < 75%

// returns Emax for `COc1ccc2oc(-c3ccc4c(c3)nnn4C(C)C)nc2c1` with human sphingosine-1-phosphate receptor 1 (S1P1) (Homo sapiens); value = > 75%

# `CC(C)Nc1ccc(-c2nnc(-c3ccc4oc(=O)[nH]c4c3)o2)cc1C#N` with human sphingosine-1-phosphate receptor 1 (S1P1) (Homo sapiens): Emax is > 75%

Others:
Item: `O=C1CC(CO)(CO)Oc2ccc(-c3nc(-c4ccncc4)no3)cc21` | System: human sphingosine-1-phosphate receptor 1 (S1P1) (Homo sapiens) | Emax: < 75%

Let me check: `CC(C)n1ccc2cc(-c3noc(-c4ccccc4C(F)(F)F)n3)ccc21` , system human sphingosine-1-phosphate receptor 1 (S1P1) (Homo sapiens), measured Emax is > 75%

For the compound `CCC1(CC)CC(=O)c2cc(-c3nc(-c4cncc(C(N)=O)c4)no3)ccc2O1` , the measured Emax on human sphingosine-1-phosphate receptor 1 (S1P1) (Homo sapiens) was > 75%

Form: item `COCC1(COC)CC(=O)c2cc(-c3nc(-c4ccncc4)no3)ccc2O1` ; test system human sphingosine-1-phosphate receptor 1 (S1P1) (Homo sapiens); Emax: < 75%

Record `CCC1(CC)CC(=O)c2cc(-c3nc(-c4ccsc4)no3)ccc2O1` has human sphingosine-1-phosphate receptor 1 (S1P1) (Homo sapiens) Emax equal to > 75%

Given the compound `Cc1ccccc1-c1nc(-c2ccc3c(c2)nnn3C(C)(C)CO)no1` and test system human sphingosine-1-phosphate receptor 1 (S1P1) (Homo sapiens), the measured Emax is < 75%

Readout Emax for `CCC1(CC)CC(=O)c2cc(-c3ncc(-c4ccnc(O)c4)cn3)ccc2O1` , test system human sphingosine-1-phosphate receptor 1 (S1P1) (Homo sapiens), was < 75%

Item `CCC1(CC)CC(=O)c2cc(-c3nc(-c4cncc(C)c4)no3)ccc2O1` was tested on human sphingosine-1-phosphate receptor 1 (S1P1) (Homo sapiens); the reported Emax is > 75%

Entry `O=C1CCc2cc(-c3nc(-c4cccnc4)no3)ccc2N1` , tested on human sphingosine-1-phosphate receptor 1 (S1P1) (Homo sapiens), has a reported Emax of > 75%

Record `CCC1(CC)CC(=O)c2cc(-c3nc(-c4cccnn4)no3)ccc2O1` / human sphingosine-1-phosphate receptor 1 (S1P1) (Homo sapiens), Emax recorded as > 75%

Reported human sphingosine-1-phosphate receptor 1 (S1P1) (Homo sapiens) Emax for item `CC(C)n1ccc2cc(-c3noc(-c4ccncc4)n3)ccc21` was < 75%

From: patent US20230114241A1
